Each item that follows carries a reported mortality at 100 g/ha.
tested on: larvae of the southern green stink bug (Nezara viridula); assay: Nezara viridula spray test; format: in vivo; settings: 96 h, application rate 100 g/ha, after 4 days, barley plants
reported-property: mortality at 100 g/ha (%)

molecular-string	units-text	measured-result
C[C@@H]1CN(C(=O)c2ccc(-n3ncnc3[C@H](C)NC(=O)c3cc(C(F)(F)F)cc(C(F)(F)F)c3)nc2)C[C@@H](C)O1	%	100
C[C@H](NC(=O)c1cc(C(F)(F)F)cc(C(F)(F)F)c1)c1ncnn1-c1ccc(C(=O)N2CCCC2)cn1	%	100
C[C@H](NC(=O)c1cc(C(F)(F)F)cc(S(C)(=O)=O)c1)c1ncnn1-c1ccc(C(=O)N2CCOCC2)cn1	%	100
C[C@H](NC(=O)c1cc(C(F)(F)F)cc(C(F)(F)F)c1)c1ncnn1-c1ccc(C(=O)N2CCOC(C)(C)C2)cn1	%	100
C[C@@H]1CN(C(=O)c2ccc(-n3ncnc3[C@H](C)NC(=O)c3cc(Cl)cc(S(C)(=O)=O)c3)nc2)C[C@@H](C)O1	%	90
C[C@H](NC(=O)c1cc(C(F)(F)F)cc(C(F)(F)F)c1)c1ncnn1-c1ccc(C(=O)N2CCNC(=O)C2)cn1	%	90

====

Entries and their pest or weed control at 1 µg/cm2, 100 g/ha
Tested on: Rhipicephalus (Boophilus) microplus larvae (strain Parkhurst, resistant against synthetic pyrethroids)
Test: Rhipicephalus (Boophilus) microplus in-vitro contact test, larval cattle tick
Type: in vivo
Conditions: application rate 1 μg/cm^2 (=100 g/ha), after 48 hours, read-out: activity (efficacy: larvae dead or moribund)
Experimental: Rhipicephalus (Boophilus) microplus—In-Vitro Contact Tests Larval Cattle Tick (Strain Parkhurst, Resistant Against Synthetic Pyrethroids) 9 mg compound is solved in 1 ml acetone and diluted with acetone to the desired concentration. 250 μL of the test solution is filled in 25 mL glass test tubes and homogeneously distributed on the inner walls by rotation and tilting on a shaking device (2 h at 30 rpm). […]
reported-property: pest or weed control at 1 µg/cm2, 100 g/ha (%)

molecule	measured-result
C[C@H](NC(=O)c1cc(OC(F)(F)F)cc(C2CC2)c1)c1ncnn1-c1ccc(N2CCOCC2)cn1	100
C[C@H](NC(=O)c1cc(Cl)cc(C(F)(F)F)c1)c1ncnn1-c1ccc(N2CCOCC2)cn1	100
C[C@@H]1CN(C(=O)c2ccc(-n3ncnc3[C@H](C)NC(=O)c3cc(Cl)cc(C(F)(F)F)c3)nc2)C[C@@H](C)O1	100
Cc1nc([C@H](C)NC(=O)c2cc(C(F)(F)F)cc(C(F)(F)F)c2)n(-c2ccc(C(=O)N3C[C@@H](C)O[C@H](C)C3)cn2)n1	100
COC1CN(C(=O)c2ccc(-n3ncnc3[C@H](C)NC(=O)c3cc(C(F)(F)F)cc(C(F)(F)F)c3)nc2)C1	100
Cc1nc([C@H](C)NC(=O)c2cc(OC(F)(F)F)cc(C3CC3)c2)n(-c2ccc(C(=O)N3C[C@@H](C)O[C@H](C)C3)cn2)n1	90
C[C@@H]1CN(C(=O)c2ccc(-n3ncnc3[C@H](C)NC(=O)c3cc(C(F)(F)F)cc(C(F)(F)F)c3)nc2)C[C@H](C)O1	100
C[C@H](NC(=O)c1cc(C(F)(F)F)cc(C(F)(F)F)c1)c1ncnn1-c1ccc(C(=O)NC2CCOC2)cn1 (stereo partly shown)	90
C[C@H](NC(=O)c1cc(C(F)(F)F)cc(C(F)(F)F)c1)c1ncnn1-c1ccc(C(=O)N2CCC2)cn1	100
Cc1nc([C@H](C)NC(=O)c2cc(C(F)(F)F)cc(C(F)(F)F)c2)n(-c2ncc(C(=O)N3CCOCC3)s2)n1	100
C[C@H](NC(=O)c1cc(Cl)cc(C(F)(F)F)c1)c1ncnn1-c1ccc(C(=O)N2CCCOCC2)cn1	100
C[C@H](NC(=O)c1cc(OC(F)(F)F)cc(C2CC2)c1)c1ncnn1-c1ccc(S(=O)(=O)N2CCOCC2)cn1	100
CC(NC(=O)c1cc(C(F)(F)F)cc(C(F)(F)F)c1)c1nc(I)nn1-c1ccc(C(=O)N2CCOCC2)cn1 (racemic)	100

====

system: cattle ticks (Rhipicephalus microplus) strain Parkhurst, SP-resistant; assay: Rhipicephalus (Boophilus) microplus dip test; format: in vivo; conditions: 168 h, application rate 100 ppm, egg deposition after 7 days, read-out: activity (efficacy: infertile eggs)
pest or weed control at 100 ppm by entry:
reported-property: pest or weed control at 100 ppm (%)

compound	test-target	measured-result
C[C@@H]1CN(C(=O)c2ccc(-n3ncnc3[C@H](C)NC(=O)c3cc(C(F)(F)F)cc(C(F)(F)F)c3)nc2)C[C@@H](C)O1 [Example I-46]	cattle ticks (Rhipicephalus microplus) strain Parkhurst, SP-resistant	100
C[C@H](NC(=O)c1cc(C(F)(F)F)cc(C(F)(F)F)c1)c1ncnn1-c1ccc(C(=O)N2CCC(O)C2)cn1 (stereo partly drawn) [Example I-13]	cattle ticks (Rhipicephalus microplus) strain Parkhurst, SP-resistant	80
C[C@H](NC(=O)c1cc(C(F)(F)F)cc(C(F)(F)F)c1)c1ncnn1-c1ccc(C(=O)N2C[C@H](C)O[C@@H](C)C2)cn1 [Example I-94]	cattle ticks (Rhipicephalus microplus) strain Parkhurst, SP-resistant	100

====

tested on: two spotted spidermite (Tetranychus urticae); experiment: Tetranychus urticae spray test OP-resistant; type: in vivo; conditions: foliar, 144 h, application rate 100 g/ha, after 6 days, French bean leaf disks
reported-property: mortality at 100 g/ha (%)

compound	test-target	reported-property	units-text	measured-result
C[C@H](NC(=O)c1cc(C(F)(F)F)cc(C(F)(F)F)c1)c1ncnn1-c1ccc(C(=O)N2CCOCC2)cn1	two spotted spidermite (Tetranychus urticae)	mortality at 100 g/ha	%	90
CC1CN(C(=O)c2ccc(-n3ncnc3[C@H](C)NC(=O)c3cc(C(F)(F)F)cc(C(F)(F)F)c3)nc2)CC(C)O1 (stereo partly shown)	two spotted spidermite (Tetranychus urticae)	mortality at 100 g/ha	%	90
Cc1nc([C@H](C)NC(=O)c2cc(C(F)(F)F)cc(C(F)(F)F)c2)n(-c2ccc(C(=O)N3CCOCC3)cn2)n1	two spotted spidermite (Tetranychus urticae)	mortality at 100 g/ha	%	100
C[C@H](NC(=O)c1cc(C(F)(F)F)cc(C(F)(F)F)c1)c1ncnn1-c1ccc(C(=O)N2CCCC2)cn1	two spotted spidermite (Tetranychus urticae)	mortality at 100 g/ha	%	100

====

tested on: Rhipicephalus (Boophilus) microplus larvae (strain Parkhurst, resistant against synthetic pyrethroids); assay: Rhipicephalus (Boophilus) microplus in-vitro contact test, larval cattle tick; assay type: in vivo; details: application rate 1 μg/cm^2 (=100 g/ha), after 48 hours, read-out: activity (efficacy: larvae dead or moribund)
Each entry below carries its reported pest or weed control at 1 µg/cm2, 100 g/ha.
reported-property: pest or weed control at 1 µg/cm2, 100 g/ha

molecule	measured-result
C[C@H](NC(=O)c1cc(C(F)(F)F)cc(C(F)(F)F)c1)c1ncnn1-c1ccc(N2CCOCC2)cn1 [Example I-44]	100%
Cc1nc([C@H](C)NC(=O)c2cc(C(F)(F)F)cc(C(F)(F)F)c2)n(-c2ccc(C(=O)N3C[C@@H](C)O[C@@H](C)C3)cn2)n1 [Example I-45]	100%
Cc1nc([C@H](C)NC(=O)c2cc(Cl)cc(C(F)(F)F)c2)n(-c2ccc(C(=O)N3CCCC3)cn2)n1 [Example I-22]	90%

====

test system: green peach aphid (Myzus persicae); test: Myzus persicae spray test; assay type: in vivo; details: foliar, 120 h, application rate 100 g/ha, after 5 days, Chinese cabbage leaf disks, read-out: activity (mortality)
Recorded mortality at 100 g/ha for the following compounds
reported-property: mortality at 100 g/ha (%)

compound	measured-result
C[C@H](NC(=O)c1cc(C(F)(F)F)cc(C(F)(F)F)c1)c1ncnn1-c1ccc(C(=O)N(C)C2COC2)cn1	100
Cc1nc([C@H](C)NC(=O)c2cc(OC(F)(F)F)cc(C3CC3)c2)n(-c2ccc(C(=O)N3C[C@@H](C)O[C@@H](C)C3)cn2)n1	90
Cc1nc([C@H](C)NC(=O)c2cc(C(F)(F)F)cc(C(F)(F)F)c2)n(-c2ccc(C(=O)N3C[C@@H](C)O[C@@H](C)C3)cn2)n1	100
C[C@H](NC(=O)c1cc(C(F)(F)F)cc(C(F)(F)F)c1)c1ncnn1-c1ccc(C(=O)N2CCOCC2)cn1	100
CCc1nc([C@H](C)NC(=O)c2cc(C(F)(F)F)cc(C(F)(F)F)c2)n(-c2ccc(C(=O)N3C[C@@H](C)O[C@@H](C)C3)cn2)n1	90
Cc1nc([C@H](C)NC(=O)c2cc(C(F)(F)F)cc(C(F)(F)F)c2)n(-c2ccc(C(=O)N3CCOCC3c3ncno3)cn2)n1 (stereo partly shown)	90
C[C@@H]1CN(C(=O)c2cnc(-n3ncnc3[C@H](C)NC(=O)c3cc(C(F)(F)F)cc(C(F)(F)F)c3)cn2)C[C@H](C)O1	90
COC1CN(C(=O)c2ccc(-n3ncnc3[C@H](C)NC(=O)c3cc(C(F)(F)F)cc(C(F)(F)F)c3)nc2)C1	90
COC1CCCN(C(=O)c2ccc(-n3ncnc3[C@H](C)NC(=O)c3cc(C(F)(F)F)cc(C(F)(F)F)c3)nc2)C1 (stereo partly shown)	90
C[C@@H]1CN(C(=O)c2ccc(-n3ncnc3[C@H](C)NC(=O)c3cc(C(F)(F)F)cc(C(F)(F)F)c3)nc2)C[C@H](C)O1	90
C[C@H](NC(=O)c1cc(C(F)(F)F)cc(C(F)(F)F)c1)c1nc(C2CC2)nn1-c1ccc(C(=O)N2CCOCC2)cn1	90
Cc1nc([C@H](C)NC(=O)c2cc(OC(F)(F)F)cc(C3CC3)c2)n(-c2ccc(C(=O)N3C[C@@H](C)O[C@H](C)C3)cn2)n1	90
Cc1nc([C@H](C)NC(=O)c2cc(Cl)cc(C(F)(F)F)c2)n(-c2ccc(C(=O)N3CC(C)OC(C)C3)cn2)n1 (stereo partly shown)	90
C[C@@H]1CN(C(=O)c2cnc(-n3ncnc3[C@H](C)NC(=O)c3cc(OC(F)(F)F)cc(C4CC4)c3)nc2)C[C@H](C)O1	90
CCc1nc([C@H](C)NC(=O)c2cc(Br)cc(OC(F)(F)F)c2)n(-c2ccc(C(=O)N3CCOCC3)cn2)n1	90
Cc1nc([C@H](C)NC(=O)c2cc(C(F)(F)F)cc(C(F)(F)F)c2)n(-c2ccc(C(=O)N3CCO[C@H](C)C3)cn2)n1	90
C[C@@H]1CN(C(=O)c2ccc(-n3ncnc3[C@H](C)NC(=O)c3cc(OC(F)(F)F)cc(C4CC4)c3)nc2)C[C@@H](C)O1	90
COC1CN(C(=O)c2ccc(-n3nc(C)nc3[C@H](C)NC(=O)c3cc(Cl)cc(C(F)(F)F)c3)nc2)C1	100
C[C@H](NC(=O)c1cc(C(F)(F)F)cc(C(F)(F)F)c1)c1ncnn1-c1ccc(C(=O)NC2CS(=O)(=O)C2)cn1	90
C[C@@H]1CN(C(=O)c2ccc(-n3ncnc3[C@H](C)NC(=O)c3cc(Cl)cc(C(F)(F)F)c3)nc2)C[C@@H](C)O1	90
CCc1nc([C@H](C)NC(=O)c2cc(C(F)(F)F)cc(C(F)(F)F)c2)n(-c2ccc(C(=O)N3CCOCC3)cn2)n1	90
Cc1nc([C@H](C)NC(=O)c2cc(Cl)cc(C(F)(F)F)c2)n(-c2ccc(C(=O)N3CC(F)C3)cn2)n1	90
Cc1nc([C@H](C)NC(=O)c2cc(C(F)(F)F)cc(C(F)(F)F)c2)n(-c2ccc(C(=O)N3C[C@@H](C)O[C@H](C)C3)cn2)n1	100
C[C@H](NC(=O)c1cc(C(F)(F)F)cc(C(F)(F)F)c1)c1ncnn1-c1ccc(C(=O)N2CCS(=O)(=O)CC2)cn1	100
COC1CCN(C(=O)c2ccc(-n3ncnc3[C@H](C)NC(=O)c3cc(Cl)cc(C(F)(F)F)c3)nc2)CC1	90
